Data credit: patent US20200255478A1

# TESTED TARGET: Keap1-Maltose Binding Protein (MBP tag) (Homo sapiens, UniProt Q14145)
# Sequence (Q14145 whole entry): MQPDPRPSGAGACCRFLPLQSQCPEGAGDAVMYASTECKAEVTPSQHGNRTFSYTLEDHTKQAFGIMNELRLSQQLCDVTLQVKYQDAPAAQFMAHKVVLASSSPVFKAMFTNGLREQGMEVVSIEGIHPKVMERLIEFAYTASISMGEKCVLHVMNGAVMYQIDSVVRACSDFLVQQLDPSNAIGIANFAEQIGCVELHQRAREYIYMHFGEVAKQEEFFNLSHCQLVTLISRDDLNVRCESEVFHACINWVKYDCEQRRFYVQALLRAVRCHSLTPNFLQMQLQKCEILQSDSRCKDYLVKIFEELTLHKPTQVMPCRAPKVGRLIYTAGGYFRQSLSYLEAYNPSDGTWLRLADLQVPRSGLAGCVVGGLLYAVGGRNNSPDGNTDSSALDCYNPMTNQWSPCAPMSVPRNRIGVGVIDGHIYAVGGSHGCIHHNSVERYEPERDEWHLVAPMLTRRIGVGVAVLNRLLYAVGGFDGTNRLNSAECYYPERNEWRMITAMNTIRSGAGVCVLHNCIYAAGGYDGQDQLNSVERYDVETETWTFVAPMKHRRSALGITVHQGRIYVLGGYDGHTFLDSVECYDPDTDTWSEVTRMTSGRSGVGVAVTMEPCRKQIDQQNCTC
# ASSAY SUMMARY: Nrf2-Keap1 HTRF (TR-FRET) binding assay: displacement of biotinylated ETGE peptide from Keap1-MBP
# RUN PARAMETERS: HTRF (TR-FRET); displacement of ETGE-biotin from Keap1-MBP; values banded into grades; read-out: Binding (IC50) ETGE-Keap1
Starred links: 1 amine or outer side, 2 acyl side, 3 side chain; linkers in the order of their positions; H or OH if unused. Positions of bridges follow the written chain, without caps; N, C: chain ends. Non-standard residues stand in square brackets, D forms with d. Residues, ends and D or L forms follow the SMILES beside them. *: point of attachment. X8 = O=C([C@H](Cc1cccc([*:3])c1)N[*:1])[*:2]; oXylylene = c1ccc(C[*:2])c(C[*:1])c1; Stearoyl = CCCCCCCCCCCCCCCCCC(=O)*; βAla = NCCC(=O)O
READOUT NAME: IC50

| MOLECULE | TESTED TARGET | READOUT NAME | REPORTED MEASUREMENT |
| --- | --- | --- | --- |
| CCCCCCCCCCCCCCCCCC(=O)NCCC(=O)N[C@H]1CSCc2ccccc2CSC[C@@H](C(N)=O)NC(=O)[C@H](CCC(=O)O)NC(=O)CNC(=O)[C@H]([C@@H](C)O)NC(=O)[C@H](CCC(=O)O)NC(=O)[C@H](C)NC(=O)[C@H](CC(=O)O)NC1=O | Keap1-Maltose Binding Protein (MBP tag) (Homo sapiens, UniProt Q14145) | IC50 | 1 to 100 nM |
| CC(C)C[C@H](NC(=O)[C@@H]1CSCc2ccccc2CSC[C@H](NC(=O)[C@H](CCC(N)=O)NC(=O)[C@@H](N)CC(C)C)C(=O)N[C@@H](CC(=O)O)C(=O)N[C@@H](C)C(=O)N[C@@H](CCC(=O)O)C(=O)N[C@@H]([C@@H](C)O)C(=O)NCC(=O)N[C@@H](CCC(=O)O)C(=O)N1)C(=O)N1CCC[C@H]1C(=O)O [Example 19] (H-LQCDAETGECLP-OH; linker 3-10 via oXylylene) | Keap1-Maltose Binding Protein (MBP tag) (Homo sapiens, UniProt Q14145) | IC50 | 1 to 100 nM |

Asked: Request the reported IC50 associated with CCCCCCCCCCCCCCCCCC(=O)NCCC(=O)N[C@@H](CC(C)C)C(=O)N[C@@H](CCC(N)=O)C(=O)N[C@H]1Cc2cccc(c2)SC[C@@H](C(=O)N[C@@H](CC(C)C)C(=O)N2CCC[C@H]2C(=O)O)NC(=O)[C@H](CCC(=O)O)NC(=O)CNC(=O)[C@H]([C@@H](C)O)NC(=O)[C@H](CCC(=O)O)NC(=O)[C@@H]2CCCN2C(=O)[C@H](CC(=O)O)NC1=O [Example 40] ({Stearoyl-βAla}-LQ[X8]DPETGECLP-OH; thioether 3-10)
Given back: 1 to 100 nM

====

# TESTED TARGET: Keap1-Maltose Binding Protein (MBP tag) (Homo sapiens)
# ASSAY SUMMARY: Nrf2-Keap1 HTRF (TR-FRET) binding assay: displacement of biotinylated ETGE peptide from Keap1-MBP
pIC50: −log10 of the molar value.
// values below are reported pIC50

Example entries and their recorded answers appear below.
| QUERY SMILES | pIC50 |
| --- | --- |
| CCCCCCCCCCCCCCCCCCCCCC(=O)N[C@H]1C[C@H]2C(=O)N[C@@H](CCC(N)=O)C(=O)N[C@H]3CSCc4ccccc4CSC[C@H](NC(=O)[C@H](CCC(=O)O)NC(=O)CNC(=O)[C@H]([C@@H](C)O)NC(=O)[C@H](CCC(=O)O)NC(=O)[C@@H]4CCCN4C(=O)[C@H](CC(=O)O)NC3=O)C(=O)N[C@@H](CC(C)C)C(=O)N3CCC[C@@H]3C(=O)N2C1 | > 9.00 |
| CCCCCCCCCCCCCCCCCC(=O)NCCCC[C@@H]1NC(=O)[C@H]2CCCN2C(=O)[C@H](CC(C)C)NC(=O)[C@@H]2CSCc3ccccc3CSC[C@H](NC(=O)[C@H](CCC(N)=O)NC1=O)C(=O)N[C@@H](CC(=O)O)C(=O)N1CCC[C@H]1C(=O)N[C@@H](CCC(=O)O)C(=O)N[C@@H]([C@@H](C)O)C(=O)NCC(=O)N[C@@H](CCC(=O)O)C(=O)N2 | > 9.00 |

Asked: Request the reported pIC50 associated with `CCCCCCCCCCCCCCCCCC(=O)N[C@H]1C[C@H]2C(=O)N[C@@H](CCC(N)=O)C(=O)N[C@H]3CSCC4(CCOCC4)CSC[C@H](NC(=O)[C@H](CCC(=O)O)NC(=O)CNC(=O)[C@H]([C@@H](C)O)NC(=O)[C@H](CCC(=O)O)NC(=O)[C@@H]4CCCN4C(=O)[C@H](CC(=O)O)NC3=O)C(=O)N[C@@H](CC(C)C)C(=O)N3CCC[C@@H]3C(=O)N2C1`
Given back: 7.00 to 9.00
